# Tested on: Staphylococcus epidermidis CCM 4418 (ATCC 12228)
# assay: Antibacterial microdilution broth (EUCAST), SE
# Type: cell-based
# experimentalParameters: read after 24 h, read-out: SE MIC
Measured MIC, listed per entry for reference.

Some solved cases for reference:
molecule	MIC
CCCCCCC(=O)Nc1nccnc1C(N)=O	> 125 µM
NC(=O)c1nccnc1NC(=O)c1ccccc1C(F)(F)F	> 500 µM
NC(=O)c1nccnc1NC(=O)c1ccc(Cl)cc1	> 500 µM
NC(=O)c1nccnc1NC(=O)c1cccc(Br)c1	> 125 µM

// query I'm curious: which MIC was measured for CNC(=O)c1nccnc1NC(=O)c1ccc(C)cc1 tested on Staphylococcus epidermidis CCM 4418 (ATCC 12228)?
// result > 500 µM

// query Note, next up: COC(=O)c1nccnc1NC(=O)C1CCCCC1 [Compound 27e]
// result > 500 µM

// query Note, next up: O=c1[nH]c(-c2ccc(F)cc2)nc2nccnc12
// result > 125 µM

// query Note, next up: CNC(=O)c1nccnc1NC(=O)c1ccc(Br)cc1
// result > 125 µM

// query Note, next up: CCCCCC(=O)Nc1nccnc1C(N)=O
// result > 500 µM

// query Note, next up: O=c1[nH]c(-c2ccc(Br)cc2)nc2nccnc12
// result > 125 µM
